Tested on: Saccharomyces cerevisiae;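 also: PSI derived as read-weighted mean over the 8 sorting bins, only variants exceeding 10 total reads kept, mCherry placed adjacent to the peptide and sfGFP distal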
Assay: protein stability index of tFT-peptide fusion in wild type (PSI (0-1 scale)); higher = more stable (slower turnover)
Details: genetic background: wild type
ASSAY_METRIC: protein stability index
Enter the number alone.

// below: answered sequences
Given the entry `ADTLPMCPLLLR` , report its measured protein stability index. 0.56

Given the entry `CTSCGLKFRTNN` , report its measured protein stability index. 0.34

Given the entry `KKHKKGQKQKTN` , report its measured protein stability index. 0.472

Given the entry `RLIQPLPKQFLN` , report its measured protein stability index. 0.103

Given the entry `CTSCGYKFRTNNH` , report its measured protein stability index. 0.687

Given the entry `LSILRQKMNHQN` , report its measured protein stability index. 0.127

Given the entry `GLYMCFVGCWFR` , report its measured protein stability index. 0.233

Given the entry `ARWRVSLWRGAS` , report its measured protein stability index. 0.268

Given the entry `KSLRVLLPLYFR` , report its measured protein stability index. 0.288

Given the entry `RSLRVLLPLIFR` , report its measured protein stability index. 0.375

Next:
Given the entry `RSLRVDLPLYFR` , report its measured protein stability index. 0.203

Given the entry `LRGAVGGWRLVG` , report its measured protein stability index. 0.149

Given the entry `CTSCGYKFRTCN` , report its measured protein stability index. 0.18
